ASSAY_TARGET: T1, G9a and GLP (Homo sapiens, UniProt Q96KQ7+Q9H9B1)
T1 sequence (Q96KQ7 2-1210 limits assumed): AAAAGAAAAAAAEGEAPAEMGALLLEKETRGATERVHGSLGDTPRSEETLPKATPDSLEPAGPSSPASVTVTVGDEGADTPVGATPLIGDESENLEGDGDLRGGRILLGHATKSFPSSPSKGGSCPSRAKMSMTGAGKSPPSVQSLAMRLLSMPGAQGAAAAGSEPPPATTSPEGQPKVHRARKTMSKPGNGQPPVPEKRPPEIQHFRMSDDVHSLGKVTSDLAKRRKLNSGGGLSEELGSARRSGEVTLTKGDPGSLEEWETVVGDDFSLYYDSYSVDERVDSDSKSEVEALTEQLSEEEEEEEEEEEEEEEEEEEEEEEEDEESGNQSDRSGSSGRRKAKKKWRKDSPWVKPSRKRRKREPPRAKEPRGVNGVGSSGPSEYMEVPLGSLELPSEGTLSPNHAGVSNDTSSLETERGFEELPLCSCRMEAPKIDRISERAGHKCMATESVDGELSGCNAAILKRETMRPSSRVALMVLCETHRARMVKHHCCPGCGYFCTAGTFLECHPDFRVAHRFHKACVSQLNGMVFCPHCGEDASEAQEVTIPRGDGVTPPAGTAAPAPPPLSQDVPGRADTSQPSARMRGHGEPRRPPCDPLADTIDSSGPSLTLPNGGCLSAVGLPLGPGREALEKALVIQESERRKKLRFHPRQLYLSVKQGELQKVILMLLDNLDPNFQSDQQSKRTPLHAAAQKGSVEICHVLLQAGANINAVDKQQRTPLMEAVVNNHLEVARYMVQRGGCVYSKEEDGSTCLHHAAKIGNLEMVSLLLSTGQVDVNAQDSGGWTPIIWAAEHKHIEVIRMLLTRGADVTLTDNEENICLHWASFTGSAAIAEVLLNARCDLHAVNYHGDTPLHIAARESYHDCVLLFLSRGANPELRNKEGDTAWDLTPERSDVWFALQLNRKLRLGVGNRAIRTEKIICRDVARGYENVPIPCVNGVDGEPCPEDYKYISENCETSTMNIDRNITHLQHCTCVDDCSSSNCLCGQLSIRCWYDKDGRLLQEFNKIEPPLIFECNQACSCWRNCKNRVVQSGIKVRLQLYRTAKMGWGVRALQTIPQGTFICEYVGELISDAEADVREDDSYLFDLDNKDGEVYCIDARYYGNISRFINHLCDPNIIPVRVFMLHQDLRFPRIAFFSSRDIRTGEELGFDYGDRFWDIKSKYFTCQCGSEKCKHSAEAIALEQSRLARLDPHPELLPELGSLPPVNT
T1 sequence (Q9H9B1 2-1298 limits assumed): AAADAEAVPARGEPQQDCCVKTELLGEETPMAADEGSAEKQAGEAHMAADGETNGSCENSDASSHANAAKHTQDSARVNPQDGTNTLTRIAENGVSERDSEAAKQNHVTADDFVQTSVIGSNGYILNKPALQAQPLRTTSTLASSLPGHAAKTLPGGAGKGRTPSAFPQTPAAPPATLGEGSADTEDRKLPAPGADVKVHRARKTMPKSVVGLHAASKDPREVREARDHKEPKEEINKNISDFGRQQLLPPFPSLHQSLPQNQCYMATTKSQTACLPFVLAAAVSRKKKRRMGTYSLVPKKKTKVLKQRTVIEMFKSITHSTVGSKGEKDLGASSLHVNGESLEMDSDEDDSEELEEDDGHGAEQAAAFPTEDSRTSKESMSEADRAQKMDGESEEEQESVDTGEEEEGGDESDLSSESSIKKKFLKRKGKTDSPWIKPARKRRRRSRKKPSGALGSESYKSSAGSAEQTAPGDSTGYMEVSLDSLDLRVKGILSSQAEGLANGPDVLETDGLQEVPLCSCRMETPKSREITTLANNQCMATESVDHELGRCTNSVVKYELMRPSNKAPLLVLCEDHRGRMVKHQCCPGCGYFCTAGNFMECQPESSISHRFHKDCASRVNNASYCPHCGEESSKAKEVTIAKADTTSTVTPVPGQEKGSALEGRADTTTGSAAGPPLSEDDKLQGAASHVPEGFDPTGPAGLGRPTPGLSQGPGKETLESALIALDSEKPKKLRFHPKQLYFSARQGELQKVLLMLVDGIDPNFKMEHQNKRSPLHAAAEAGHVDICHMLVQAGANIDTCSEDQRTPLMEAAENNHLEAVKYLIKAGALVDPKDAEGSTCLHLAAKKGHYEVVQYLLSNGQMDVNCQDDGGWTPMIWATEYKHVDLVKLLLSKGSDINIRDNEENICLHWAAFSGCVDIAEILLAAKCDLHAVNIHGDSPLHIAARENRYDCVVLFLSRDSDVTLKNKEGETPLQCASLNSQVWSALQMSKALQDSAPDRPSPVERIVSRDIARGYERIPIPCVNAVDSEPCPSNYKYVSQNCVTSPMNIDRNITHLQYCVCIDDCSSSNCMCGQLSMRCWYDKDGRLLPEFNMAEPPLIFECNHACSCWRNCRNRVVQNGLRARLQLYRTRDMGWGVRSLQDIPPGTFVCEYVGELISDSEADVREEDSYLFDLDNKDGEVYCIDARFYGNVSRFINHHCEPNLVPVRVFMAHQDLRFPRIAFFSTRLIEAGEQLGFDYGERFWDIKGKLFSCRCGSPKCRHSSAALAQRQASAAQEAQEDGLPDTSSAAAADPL
ASSAY_NAME: Triple SILAC pull-down after UNC0638 treatment of 293T cells, DMSO/UNC0638 ratio of protein captured by 3×MBT;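 further: mass spectrometry (Q-Exactive) SILAC quantitation, DMSO/UNC0638 ratio computed after subtracting 3×MBTD355N mutant pull-down background, only proteins with at least twofold 3×MBT over mutant signal considered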
Assay type: cell-based
Design: cells were treated for 24 hours with UNC0638 at 2.5 μM or DMSO vehicle control; endogenous in cells; host or cells: HEK 293T
CONDITION_DETAILS: SILAC ratio DMSO/UNC0638 of protein pulled down with 3xMBT; UNC0638 in heavy SILAC media
PROPERTY_NAME: Relative to UNC0638 UNC Heavy
Respond with a number, then the unit of measure.

## Task Assign Relative to UNC0638 UNC Heavy to the following record: C20orf43 (protein, UniProt Q9BY42 1-306, looked up) Replication termination …: MGCDGGTIPKRHELVKGPKKVEKVDKDAELVAQWNYCTLSQEILRRPIVACELGRLYNKDAVIEFLLDKSAEKALGKAASHIKSIKNVTELKLSDNPAWEGDKGNTKGDKHDDLQRARFICPVVGLEMNGRHRFCFLRCCGCVFSERALKEIKAEVCHTCGAAFQEDDVIMLNGTKEDVDVLKTRMEERRLRAKLEKKTKKPKAAESVSKPDVSEEAPGPSKVKTGKPEEASLDSREKKTNLAPKSTAMNESSSGKAGKPPCGATKRSIADSEESEAYKSLFTTHSSAKRSKEESAHWVTHTSYCF
## Result 2.48 log base 2
